read-out: Insulin Like Growth Factor 1 (IGF1), IGF1 (gene 3479); assay: LTEA_HepaRG_IGF1: Life Technologies and Expression Analysis (LTEA) Assay for Insulin Like Growth Factor 1 (IGF1) using HepaRG (AID 2283506); settings: mRNA level, 48 h; actives raise or lower the signal
The source made the active and inactive calls. How the source made its calls: active means hit-call score of the fitted dose curve at least 0.9, where 1 is the maximum; inactive means score below 0.9.
Classes used: active, inactive

- COMPOUND: "O=C(Nc1ccc2[nH]ccc2c1)c1cc2cc(F)ccc2n1Cc1cccc(F)c1"
  ASSIGNED LABEL: "active"
- COMPOUND: "Cn1sc(Cl)cc1=O"
  ASSIGNED LABEL: "inactive"
- COMPOUND: "CCC(C)(C)c1ccc(O)c(C(C)(C)CC)c1"
  ASSIGNED LABEL: "inactive"
- COMPOUND: "C=C(C)C(=O)[O][Sn]([CH2]CCC)([CH2]CCC)[CH2]CCC"
  ASSIGNED LABEL: "active"
- COMPOUND: "CC(C)(OO)c1ccccc1"
  ASSIGNED LABEL: "inactive"
- COMPOUND: "CC(C)(c1ccccc1)c1ccc(O)c(C(C)(C)c2ccccc2)c1"
  ASSIGNED LABEL: "active"
- COMPOUND: "O=c1[nH]c(=O)[nH]c(=O)[nH]1"
  ASSIGNED LABEL: "inactive"
- COMPOUND: "CN(C)N=O"
  ASSIGNED LABEL: "inactive"
- COMPOUND: "CC(C)(C)CC(C)(C)c1ccc(O)cc1"
  ASSIGNED LABEL: "inactive"
- COMPOUND: "CCC(=O)C(CC(C)N(C)C)(c1ccccc1)c1ccccc1 (configuration not stated)"
  ASSIGNED LABEL: "inactive"
- COMPOUND: "CCN1CCC2(CC1)COc1cc3c(cc12)N(C(=O)c1ccc(-c2ccc(-c4nnc(C)o4)cc2C)cc1)CC3"
  ASSIGNED LABEL: "active"
- COMPOUND: "CCCCCCCCc1ccc(O)cc1"
  ASSIGNED LABEL: "inactive"
- COMPOUND: "Cc1ccccc1N"
  ASSIGNED LABEL: "inactive"
- COMPOUND: "C[C@@H]1C[C@@H]([C@H](O)CC2CC(=O)NC(=O)C2)C(=O)[C@@H](C)C1"
  ASSIGNED LABEL: "active"
- COMPOUND: "O=C(O)C(F)(F)C(F)(F)C(F)(F)C(F)(F)C(F)(F)C(F)(F)F"
  ASSIGNED LABEL: "inactive"
- COMPOUND: "ClC1(Cl)C2(Cl)C3(Cl)C4(Cl)C(Cl)(Cl)C5(Cl)C3(Cl)C1(Cl)C5(Cl)C24Cl (configuration not stated)"
  ASSIGNED LABEL: "inactive"
- COMPOUND: "Oc1cccc2cccnc12"
  ASSIGNED LABEL: "inactive"

----------
biological target: frog Thyroid hormone Receptor alpha (TRa), thra-a (gene 397942) (UniProt P15204); assay: ATG_frTRa_XSP1: Attagene TRANS-FACTORIAL Multi-Species (XSP1) HepG2 Assay for frog Thyroid hormone Receptor alpha (TRa) (AID 2283804)
Sequence (P15204 whole entry, looked up): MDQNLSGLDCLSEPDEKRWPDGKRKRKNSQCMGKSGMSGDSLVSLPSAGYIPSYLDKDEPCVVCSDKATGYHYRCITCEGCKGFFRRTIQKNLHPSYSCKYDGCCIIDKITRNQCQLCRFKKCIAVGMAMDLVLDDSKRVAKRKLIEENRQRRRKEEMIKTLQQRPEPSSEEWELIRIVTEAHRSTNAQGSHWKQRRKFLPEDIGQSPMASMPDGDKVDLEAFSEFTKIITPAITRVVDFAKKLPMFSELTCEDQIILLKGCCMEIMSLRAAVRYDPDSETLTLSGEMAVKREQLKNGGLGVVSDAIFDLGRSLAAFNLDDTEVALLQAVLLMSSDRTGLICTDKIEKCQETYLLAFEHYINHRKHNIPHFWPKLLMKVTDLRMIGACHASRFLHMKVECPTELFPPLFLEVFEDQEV
Inconclusive results are not listed. The source made the active and inactive calls. Rule for the calls: active = hit-call score of the fitted dose curve at least 0.9, where 1 is the maximum; inconclusive = response in the unintended direction; inactive = score below 0.9.
READOUT LABEL: outcome

- COMPOUND: "O=C1C2(Cl)C3(Cl)C4(Cl)C(Cl)(Cl)C5(Cl)C3(Cl)C1(Cl)C5(Cl)C24Cl (centres undefined)"
  TARGET DESC: "frog Thyroid hormone Receptor alpha (TRa), thra-a (gene 397942) (UniProt P15204)"
  READOUT LABEL: "outcome"
  TEST RESULT: "inactive"
- COMPOUND: "CC(C)(C)CC(C)(C)c1ccc(O)cc1"
  TARGET DESC: "frog Thyroid hormone Receptor alpha (TRa), thra-a (gene 397942) (UniProt P15204)"
  READOUT LABEL: "outcome"
  TEST RESULT: "inactive"
- COMPOUND: "CC(C)(C)c1cc(O)ccc1O"
  TARGET DESC: "frog Thyroid hormone Receptor alpha (TRa), thra-a (gene 397942) (UniProt P15204)"
  READOUT LABEL: "outcome"
  TEST RESULT: "inactive"
- COMPOUND: "CC12CC1(C)C(=O)N(c1cc(Cl)cc(Cl)c1)C2=O (centres undefined)"
  TARGET DESC: "frog Thyroid hormone Receptor alpha (TRa), thra-a (gene 397942) (UniProt P15204)"
  READOUT LABEL: "outcome"
  TEST RESULT: "inactive"
